These entries and their values trace back to ChEMBL document CHEMBL5260847.

Assay: Selectivity index, ratio of IC50 for antiproliferative activity against human MCF-10A cells to IC50 for antiproliferative activity against […] cells by MTT assay
Type: toxicity, cell-based
Settings: MCF-10A cells and IEC-6 cells, read-out: Selectivity Index
reported_metric: selectivity ratio
Reply briefly: the number, and no unit.

- O=C1Nc2ccc(Cl)cc2/C1=N/N=C/c1nc(-c2ccccc2)cs1: 1.8

Input: Please give the documented selectivity ratio of O=C1Nc2ccc(Cl)cc2/C1=N/N=C/c1ccn[nH]1
Output: 1.6
